Target: T1, human BCMA with a His tag (ACROBiosystems, Catalog No.: BCA-H522y) (human)
T1 construct: Bought His-tagged recombinant protein; also called huBCMA-His; Recombinant human BCMA
T1 chain: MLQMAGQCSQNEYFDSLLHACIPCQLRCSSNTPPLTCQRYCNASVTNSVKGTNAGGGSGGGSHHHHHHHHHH
Experiment: SPR, Biacore T200
endpoint: Kd (nM)
One number for each entry, in nM.

Please review the entries below; each comes with its answer.
Using the record for SCT-Aa15(h/h) (antibody, V domains shown, Full IgG format, chimeric: human IgG1 heavy chain constant region, human kappa light chain constant region) VH: QVQLQQSDAELVKPGPSVKISCKVSGSTFTDHTVHWMKQRPEQGLEWIGYVYPRDGSTRYNEKFKGKATLTADKSSSTAYMQLNSLTSEDSAVYFCARWDYEGFDYWGQGTTLTVSS VL: DIVMTQSPATLSVTPGDRVSLSCRASQNISDYLHWYQQKSHESPRLLIKYASQSISGIPSRFSGSGSGSDFTLSINSVEPEDVGVYYCQNGHSFPPTFGSGTKLKIK , report its Kd.
1.19

Using the record for SCT-Aa17(h/h) (antibody, V domains shown, Full IgG format, chimeric: human IgG1 heavy chain constant region, human kappa light chain constant region) VH: EVQLQQSGPELVKPGASVKMSCKASGYTFTSYVMDWVKQKPGQGLEWIGYINPYNDGTKYNEKFKGKATLTSDKSSSTVYMELSSLTSEDSAVYHCARSDYDYGYAMDYWGQGTSVTVSS VL: DIQMTQSPASLSLSVGETVTITCRASENIYSNLAWYQQKQGNSPQLLVYSATHLADGVPSRFSGSGSGTQYSLKINSLQSEDFGCYYCQHFWGPPWTFGGGTKLEIK , report its Kd.
2.45

Using the record for SCT-Aa03(m/m) (antibody, V domains shown, Full IgG format: mouse IgG1 heavy chain constant region, mouse kappa light chain constant region) VH: EVKLLQSGGGLVQPGGSLKLSCAASGIDFSRYWMSWVRRAPGKGLEWIGEINPDSSTINYAPSLKDKFIISRDNAKNTLYLQMSKVRSEDTALYYCASFYYDYDHAMDYWGQGTSVTVSS VL: DIVMTQSQKFMSTSVGDRFSVTCKASQNVGTNVAWYQQKPGQSPKALIYSASYRFSGVPDRFTGSGSGTDFTLTISNVQSEDLAEYFCQQYNSYPFTFGSGTKLEIK , report its Kd.
11.7

// below: Kd requested for another binder
Using the record for SCT-Aa13(m/m) (antibody, V domains shown, Full IgG format: mouse IgG1 heavy chain constant region, mouse kappa light chain constant region) VH: QVQLQQSDAELVKPGASVKISCKVSGYTFTDYTIHWMKQRPEQGLEWIGYIYPRDGSTKYNEKFKGKATLTADKSSSTAYMQLNSLTSEDSAVYFCARWDYEGFDYWGQGTTLTVSS VL: DIVMTQSPATLSVTPGDRVSLSCRASQSISDYLHWYQQKSHESPRLLIKYASQSISGIPSRFSGSGSGSDFTLSINSVEPEDVGVYYCQNGHSFPPTFGSGTKLEIK , report its Kd.
43.8
